- test-parameters: in 2-pentanone, 303.05 K
quantity-name: solubility (mole fraction)
Reply briefly: the number, and no unit.

In: For the compound shown here, `CC(N)=S` , give the reported solubility (mole fraction).
Out: 0.202

* * *

- test-parameters: in ethyl acetate, 313.15 K
quantity-name: solubility (mole fraction)
Reply briefly: the number, and no unit.

In: For the compound shown here, `CC(N)=S` , give the reported solubility (mole fraction).
Out: 0.175

* * *

- test-parameters: in methyl acetate, 297.85 K
quantity-name: solubility (mole fraction)

In: For the molecule shown here, `CC(N)=S` , give the reported solubility (mole fraction).
Out: 0.126

* * *

- test-parameters: in n-propanol, 318.25 K
quantity-name: solubility (mole fraction)
Reply briefly: the number, and no unit.

In: For the compound shown here, `CC(N)=S` , give the reported solubility (mole fraction).
Out: 0.236

* * *

- test-parameters: in ethyl formate, 297.85 K
quantity-name: solubility (mole fraction)
Reply briefly: the number, and no unit.

In: For the compound shown here, `CC(N)=S` , give the reported solubility (mole fraction).
Out: 0.0965

* * *

- test-parameters: in 2-pentanone, 323.95 K
quantity-name: solubility (mole fraction)
Reply briefly: the number, and no unit.

In: For the compound shown here, `CC(N)=S` , give the reported solubility (mole fraction).
Out: 0.286

* * *

- test-parameters: in ethyl acetate, 282.55 K
quantity-name: solubility (mole fraction)
Reply briefly: the number, and no unit.

In: For the compound shown here, `CC(N)=S` , give the reported solubility (mole fraction).
Out: 0.0843

* * *

- test-parameters: in isobutanol, 308.05 K
quantity-name: solubility (mole fraction)
Reply briefly: the number, and no unit.

In: For the compound shown here, `CC(N)=S` , give the reported solubility (mole fraction).
Out: 0.133

* * *

- test-parameters: in isopentanol, 288.25 K
quantity-name: solubility (mole fraction)
Reply briefly: the number, and no unit.

In: For the molecule shown here, `CC(N)=S` , give the reported solubility (mole fraction).
Out: 0.0648

* * *

- test-parameters: in acetone, 293.35 K
quantity-name: solubility (mole fraction)
Reply briefly: the number, and no unit.

In: For the compound shown here, `CC(N)=S` , give the reported solubility (mole fraction).
Out: 0.216

* * *

- test-parameters: in ethyl formate, 313.15 K
quantity-name: solubility (mole fraction)
Reply briefly: the number, and no unit.

In: For the molecule shown here, `CC(N)=S` , give the reported solubility (mole fraction).
Out: 0.149

* * *

- test-parameters: in methanol, 323.15 K
quantity-name: solubility (mole fraction)
Reply briefly: the number, and no unit.

In: For the compound shown here, `CC(N)=S` , give the reported solubility (mole fraction).
Out: 0.348

* * *

- test-parameters: in acetone, 323.95 K
quantity-name: solubility (mole fraction)
Reply briefly: the number, and no unit.

In: For the compound shown here, `CC(N)=S` , give the reported solubility (mole fraction).
Out: 0.36

* * *

- test-parameters: in n-propanol, 283.45 K
quantity-name: solubility (mole fraction)
Reply briefly: the number, and no unit.

In: For the compound shown here, `CC(N)=S` , give the reported solubility (mole fraction).
Out: 0.0748

* * *

- test-parameters: in n-pentanol, 313.35 K
quantity-name: solubility (mole fraction)
Reply briefly: the number, and no unit.

In: For the molecule shown here, `CC(N)=S` , give the reported solubility (mole fraction).
Out: 0.172

* * *

- test-parameters: in acetone, 279.35 K
quantity-name: solubility (mole fraction)
Reply briefly: the number, and no unit.

In: For the compound shown here, `CC(N)=S` , give the reported solubility (mole fraction).
Out: 0.165

* * *

- test-parameters: in methanol, 283.45 K
quantity-name: solubility (mole fraction)
Reply briefly: the number, and no unit.

In: For the compound shown here, `CC(N)=S` , give the reported solubility (mole fraction).
Out: 0.123

* * *

- test-parameters: in methanol, 277.95 K
quantity-name: solubility (mole fraction)
Reply briefly: the number, and no unit.

In: For the compound shown here, `CC(N)=S` , give the reported solubility (mole fraction).
Out: 0.104

* * *

- test-parameters: in 2-butanone, 297.85 K
quantity-name: solubility (mole fraction)
Reply briefly: the number, and no unit.

In: For the compound shown here, `CC(N)=S` , give the reported solubility (mole fraction).
Out: 0.223

* * *

- test-parameters: in 2-butanone, 272.85 K
quantity-name: solubility (mole fraction)
Reply briefly: the number, and no unit.

In: For the compound shown here, `CC(N)=S` , give the reported solubility (mole fraction).
Out: 0.137

* * *

- test-parameters: in ethanol, 313.35 K
quantity-name: solubility (mole fraction)
Reply briefly: the number, and no unit.

In: For the compound shown here, `CC(N)=S` , give the reported solubility (mole fraction).
Out: 0.214

* * *

- test-parameters: in methyl acetate, 323.95 K
quantity-name: solubility (mole fraction)
Reply briefly: the number, and no unit.

In: For the compound shown here, `CC(N)=S` , give the reported solubility (mole fraction).
Out: 0.242

* * *

- test-parameters: in methyl acetate, 308.55 K
quantity-name: solubility (mole fraction)
Reply briefly: the number, and no unit.

In: For the molecule shown here, `CC(N)=S` , give the reported solubility (mole fraction).
Out: 0.167

* * *

- test-parameters: in acetone, 308.55 K
quantity-name: solubility (mole fraction)

In: For the molecule shown here, `CC(N)=S` , give the reported solubility (mole fraction).
Out: 0.282

* * *

- test-parameters: in ethanol, 283.45 K
quantity-name: solubility (mole fraction)
Reply briefly: the number, and no unit.

In: For the molecule shown here, `CC(N)=S` , give the reported solubility (mole fraction).
Out: 0.0901

* * *

- test-parameters: in n-propanol, 273.15 K
quantity-name: solubility (mole fraction)

In: For the compound shown here, `CC(N)=S` , give the reported solubility (mole fraction).
Out: 0.0503

* * *

- test-parameters: in isopentanol, 302.35 K
quantity-name: solubility (mole fraction)

In: For the compound shown here, `CC(N)=S` , give the reported solubility (mole fraction).
Out: 0.114

* * *

- test-parameters: in ethyl acetate, 308.55 K
quantity-name: solubility (mole fraction)
Reply briefly: the number, and no unit.

In: For the molecule shown here, `CC(N)=S` , give the reported solubility (mole fraction).
Out: 0.158

* * *

- test-parameters: in ethyl formate, 293.35 K
quantity-name: solubility (mole fraction)
Reply briefly: the number, and no unit.

In: For the compound shown here, `CC(N)=S` , give the reported solubility (mole fraction).
Out: 0.0843

* * *

- test-parameters: in isopropanol, 298.15 K
quantity-name: solubility (mole fraction)
Reply briefly: the number, and no unit.

In: For the compound shown here, `CC(N)=S` , give the reported solubility (mole fraction).
Out: 0.113

* * *

- test-parameters: in methyl acetate, 318.05 K
quantity-name: solubility (mole fraction)
Reply briefly: the number, and no unit.

In: For the molecule shown here, `CC(N)=S` , give the reported solubility (mole fraction).
Out: 0.211

* * *

- test-parameters: in n-butanol, 273.15 K
quantity-name: solubility (mole fraction)
Reply briefly: the number, and no unit.

In: For the compound shown here, `CC(N)=S` , give the reported solubility (mole fraction).
Out: 0.0417

* * *

- test-parameters: in n-propanol, 313.35 K
quantity-name: solubility (mole fraction)
Reply briefly: the number, and no unit.

In: For the compound shown here, `CC(N)=S` , give the reported solubility (mole fraction).
Out: 0.203

* * *

- test-parameters: in ethyl formate, 318.05 K
quantity-name: solubility (mole fraction)
Reply briefly: the number, and no unit.

In: For the compound shown here, `CC(N)=S` , give the reported solubility (mole fraction).
Out: 0.17

* * *

- test-parameters: in 2-butanone, 323.95 K
quantity-name: solubility (mole fraction)
Reply briefly: the number, and no unit.

In: For the molecule shown here, `CC(N)=S` , give the reported solubility (mole fraction).
Out: 0.343

* * *

- test-parameters: in isopropanol, 277.95 K
quantity-name: solubility (mole fraction)
Reply briefly: the number, and no unit.

In: For the molecule shown here, `CC(N)=S` , give the reported solubility (mole fraction).
Out: 0.0532

* * *

- test-parameters: in methyl acetate, 279.35 K
quantity-name: solubility (mole fraction)

In: For the compound shown here, `CC(N)=S` , give the reported solubility (mole fraction).
Out: 0.074

* * *

- test-parameters: in n-butanol, 318.25 K
quantity-name: solubility (mole fraction)
Reply briefly: the number, and no unit.

In: For the compound shown here, `CC(N)=S` , give the reported solubility (mole fraction).
Out: 0.271

* * *

- test-parameters: in ethanol, 308.05 K
quantity-name: solubility (mole fraction)
Reply briefly: the number, and no unit.

In: For the compound shown here, `CC(N)=S` , give the reported solubility (mole fraction).
Out: 0.186

* * *

- test-parameters: in methyl acetate, 272.85 K
quantity-name: solubility (mole fraction)
Reply briefly: the number, and no unit.

In: For the molecule shown here, `CC(N)=S` , give the reported solubility (mole fraction).
Out: 0.0603
